Assay: recombinant UMI read abundance after kanamycin selection (control-corrected) (log10(CPM+1)); higher = more efficient recombination; extreme values may be limits of the assay; sequences stand for … in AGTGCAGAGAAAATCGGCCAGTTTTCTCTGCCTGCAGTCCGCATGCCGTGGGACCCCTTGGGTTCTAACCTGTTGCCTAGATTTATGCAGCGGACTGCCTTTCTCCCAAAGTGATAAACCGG…AGGTTGGTTTCACT; site = the 11-nt donor;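 note: IS621 bridge recombinase in Escherichia coli cells against a fixed T5 target plasmid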
recorded metric: recombinant UMI read abundance (log10)
One number for each entry.

Completed entries (count: 4):
[in] Name the recorded recombinant UMI read abundance (log10) for GTATACACATGGACCGGTTTTCCCGGTAATCCGTATTTGTA (site GTATGCACTTA) .
[out] 0.0117

[in] Name the recorded recombinant UMI read abundance (log10) for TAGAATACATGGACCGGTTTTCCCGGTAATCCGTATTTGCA (site TGGAATACTTG) .
[out] 0

[in] Name the recorded recombinant UMI read abundance (log10) for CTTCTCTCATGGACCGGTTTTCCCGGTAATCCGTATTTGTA (site CGTCTCTCTTA) .
[out] 1.35

[in] Name the recorded recombinant UMI read abundance (log10) for GGGCGTCCATGGACCGGTTTTCCCGGTAATCCGTATTTGGT (site GGGCGTCCTAC) .
[out] 0

Provide recombinant UMI read abundance (log10) for all items below, preserving their order.
1. TTTGCAGCATGGACCGGTTTTCCCGGTAATCCGTATTTGCT (site TTTGCAGCTAG)
2. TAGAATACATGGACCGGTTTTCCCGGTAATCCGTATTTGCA (site TAGAATACTGG)
3. ACAGCAGCATGGACCGGTTTTCCCGGTAATCCGTATTTGCA (site ACAGTATCTTG)
4. AGGGCACCATGGACCGGTTTTCCCGGTAATCCGTATTTGCA (site TGGGCACCTTG)
5. ATTGTGTCATGGACCGGTTTTCCCGGTAATCCGTATTTGAC (site AATGTGTCTGT)
6. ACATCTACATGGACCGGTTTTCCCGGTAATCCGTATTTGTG (site AGATCTACTCA)

[out]
1: 0.00605; 2: 0; 3: 0; 4: 0; 5: 0; 6: 0.00667

Provide recombinant UMI read abundance (log10) for all items below, preserving their order.
1. ACGAGTGCATGGACCGGTTTTCCCGGTAATCCGTATTTGGT (site ACAAGTGCTAC)
2. CCATTTACATGGACCGGTTTTCCCGGTAATCCGTATTTGCT (site CCCTTTACTAG)
3. CGTAATCCATGGACCGGTTTTCCCGGTAATCCGTATTTGTT (site CGGAATCCTAA)

[out]
1. 2.22
2. 0
3. 0.00347

Provide recombinant UMI read abundance (log10) for all items below, preserving their order.
1. AGTAGAACATGGACCGGTTTTCCCGGTAATCCGTATTTGAG (site ACTAGAACTCT)
2. CTATTCCCATGGACCGGTTTTCCCGGTAATCCGTATTTGCT (site CCATTCCCTAG)

[out]
1: 0.901; 2: 1.43

Provide recombinant UMI read abundance (log10) for all items below, preserving their order.
1. GCGAAGCCATGGACCGGTTTTCCCGGTAATCCGTATTTGGC (site GCGAAGCCTAC)
2. ACACGGACATGGACCGGTTTTCCCGGTAATCCGTATTTGTC (site ACACGTACTGA)
3. ATACATCCATGGACCGGTTTTCCCGGTAATCCGTATTTGAC (site ATACATCCTGT)
4. CCCCAGACATGGACCGGTTTTCCCGGTAATCCGTATTTGTA (site CCCCACACTTA)
5. GTGAATGCATGGACCGGTTTTCCCGGTAATCCGTATTTGGT (site GTGAATGCTAC)
6. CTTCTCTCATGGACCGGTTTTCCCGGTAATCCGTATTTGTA (site CTTCTCCCTTA)
7. CGGATACCATGGACCGGTTTTCCCGGTAATCCGTATTTGTT (site CGGATACCTAA)
8. TCCACCACATGGACCGGTTTTCCCGGTAATCCGTATTTGCG (site TCCACCCCTCG)

[out]
1: 0.0106; 2: 0; 3: 1.12; 4: 0.0077; 5: 2.73; 6: 0.207; 7: 0; 8: 0.0154
